Below, each entry is listed with its recorded hERG current change (%, negative = inhibition) at 10uM.
# assayedTarget: human ether-à-go-go-related gene (hERG) potassium channel (human, UniProt Q12809);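 further: peak tail current of the secondary pulse compared with the same well before compound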
# Sequence (Q12809 whole entry, looked up): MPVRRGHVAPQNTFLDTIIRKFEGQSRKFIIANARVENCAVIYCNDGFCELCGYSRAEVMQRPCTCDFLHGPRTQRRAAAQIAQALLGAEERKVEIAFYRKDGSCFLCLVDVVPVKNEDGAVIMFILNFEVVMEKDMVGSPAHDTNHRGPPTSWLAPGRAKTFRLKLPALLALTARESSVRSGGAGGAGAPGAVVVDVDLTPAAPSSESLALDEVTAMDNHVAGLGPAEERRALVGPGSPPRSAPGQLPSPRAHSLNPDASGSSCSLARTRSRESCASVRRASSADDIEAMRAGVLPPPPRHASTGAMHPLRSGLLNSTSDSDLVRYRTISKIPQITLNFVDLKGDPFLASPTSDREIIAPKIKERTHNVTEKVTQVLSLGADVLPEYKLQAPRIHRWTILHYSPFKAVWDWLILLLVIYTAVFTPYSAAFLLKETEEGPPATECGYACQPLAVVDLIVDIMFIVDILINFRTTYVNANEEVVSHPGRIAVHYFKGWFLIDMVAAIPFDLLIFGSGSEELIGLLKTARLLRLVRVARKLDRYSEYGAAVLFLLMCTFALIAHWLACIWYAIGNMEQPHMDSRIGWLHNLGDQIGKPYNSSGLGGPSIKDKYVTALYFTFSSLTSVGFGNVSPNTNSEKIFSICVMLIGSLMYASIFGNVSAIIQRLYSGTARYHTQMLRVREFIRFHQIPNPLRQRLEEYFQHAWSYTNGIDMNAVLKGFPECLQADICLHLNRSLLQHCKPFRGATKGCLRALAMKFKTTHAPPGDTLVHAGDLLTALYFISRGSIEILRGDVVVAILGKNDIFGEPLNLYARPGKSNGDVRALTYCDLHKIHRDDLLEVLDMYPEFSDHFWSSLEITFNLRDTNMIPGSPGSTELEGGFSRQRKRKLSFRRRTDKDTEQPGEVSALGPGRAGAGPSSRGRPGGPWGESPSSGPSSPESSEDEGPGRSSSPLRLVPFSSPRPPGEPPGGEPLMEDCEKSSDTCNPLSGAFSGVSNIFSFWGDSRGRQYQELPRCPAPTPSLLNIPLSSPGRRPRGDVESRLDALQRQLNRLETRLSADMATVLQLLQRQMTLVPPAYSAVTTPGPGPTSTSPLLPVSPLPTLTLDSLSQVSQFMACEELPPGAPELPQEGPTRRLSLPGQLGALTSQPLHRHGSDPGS
# experimentNotes: primary screen, population patch clamp on CHO cells stably expressing hERG; higher = less effect of the substance
Out of some 310,000 compounds screened, about 14,000 (4.5%) showed an effect of 50% or more. The effect is printed as a negative number. The full list was thinned out, with strong results kept by preference.
Provide only the numeric value, understood in %.

Cc1cc(=O)n2nc(N3CCCC(C(=O)N4CCOCC4)C3)sc2n1 (centres unmarked) = 3.1
COc1ccc(NC(=O)N2c3ccc(OC)cc3C(C)=CC2(C)C)cc1 = 20.1
FC(F)(F)COc1nc(N/N=C/c2cccnc2)nc(N2CCCCC2c2ccccn2)n1 (centres unmarked) = -60.8
C(=N\Nc1nc(N2CCOCC2)nc(N2CCOCC2)n1)/c1cccnc1 = -12.1

Next:
Incoming: # return recorded hERG current change (%, negative = inhibition) at 10uM for entry COc1ccc(CCNC(=O)C2CCN(C(=O)c3cccs3)CC2)cc1
Outgoing: -0.649
